These measurements were taken from PubChem BioAssay (NCI).

This section presents compounds with their documented GI50 values.
# Test system: SK-OV-3 ovarian
# protocolNotes: NCI tumour cell line growth inhibition, 48 h
Where a SMILES comes first, the peptide text is derived from it. [ ]: non-standard residue; d: D form. The star is where a group is joined. ξ: configuration not given here. X3 = COc1ccc(C(N*)c2ccc(OC)cc2)cc1; NMeF = CN[C@@H](Cc1ccccc1)C(=O)O; NMeD = CN[C@@H](CC(=O)O)C(=O)O; NMeV = CN[C@H](C(=O)O)C(C)C; ξNMeV = CNC(C(=O)O)C(C)C; Boc = CC(C)(C)OC(=O)*; ξNMeA = CNC(C)C(=O)O; ξV = CC(C)C(N)C(=O)O
measuredEndpoint: GI50

[
  {
    "compound": "COc1cccc(-c2nc(-c3ccc(NC(=O)OC(C)C)cc3)[nH]c2-c2ccnc(Br)c2)c1",
    "measuredEndpoint": "GI50",
    "result": "3.85 µM"
  },
  {
    "compound": "C[C@]12CCC3c4ccc(O)cc4CCC3C1CC[C@@]2(O)CNC(=O)/C=C/c1ccc(O)c(O)c1 (some centres not stated)",
    "measuredEndpoint": "GI50",
    "result": "16.7 µM"
  },
  {
    "compound": "CCCCCCCCCCn1cc[n+](C)c1",
    "measuredEndpoint": "GI50",
    "result": "2.62 µM"
  },
  {
    "compound": "COc1ccc(C(NC(=O)C[C@@H](C(=O)N(C)C(C)C(=O)O)N(C)C(=O)[C@@H]2CCCN2C(=O)[C@H](C(C)C)N(C)C(=O)C(C(C)C)N(C)C(=O)[C@H](Cc2ccccc2)N(C)C(=O)C(NC(=O)OC(C)(C)C)C(C)C)c2ccc(OC)cc2)cc1 (some centres not stated) (Boc-[ξV][NMeF][ξNMeV][NMeV]P[NMeD](X3)[ξNMeA]-OH)",
    "measuredEndpoint": "GI50",
    "result": "19.2 µM"
  },
  {
    "compound": "Cc1ccc(-n2c3nc(=O)[nH]c(=O)c-3cc3cc([N+](=O)[O-])ccc32)cc1",
    "measuredEndpoint": "GI50",
    "result": "37.1 µM"
  },
  {
    "compound": "N[C@@H]1CCCC[C@@H]1N.O=P([O-])([O-])CN(CCN(CP(=O)([O-])[O-])CP(=O)([O-])[O-])CP(=O)([O-])[O-].[Pt+2]",
    "measuredEndpoint": "GI50",
    "result": "> 25 µM"
  },
  {
    "compound": "Cc1cc(I)cc(CN(CCCN(C)C)C(C)C)c1O",
    "measuredEndpoint": "GI50",
    "result": "15.1 µM"
  }
]

###

Quick list: TGI per entry.
# System: SN12C renal
# protocolNotes: NCI tumour cell line growth inhibition, 48 h

[
  {
    "molecule": "S=c1sc2c(n1-c1ccccc1)NC=NC2S (stereo not drawn)",
    "system": "SN12C renal",
    "TGI": "> 100 µM"
  },
  {
    "molecule": "Cc1cc(-c2nc3ccc(F)cc3s2)ccc1NC(=O)[C@H](C)N",
    "system": "SN12C renal",
    "TGI": "28.7 µM"
  },
  {
    "molecule": "COc1ccc(C(=C2C=CC=C2)c2ccc(OC)cc2)cc1",
    "system": "SN12C renal",
    "TGI": "81.3 µM"
  },
  {
    "molecule": "Oc1ccc(Cc2cc(Cc3ccc(O)cc3)cc(Cc3ccc(O)cc3)c2)cc1",
    "system": "SN12C renal",
    "TGI": "> 50 µM"
  },
  {
    "molecule": "O=c1c(-c2ccccc2)c2oc(c1-c1ccccc1)CSCc1cccc(c1)CSC2",
    "system": "SN12C renal",
    "TGI": "> 100 µM"
  },
  {
    "molecule": "CC(=O)/C=C/C1=C(C)CCCC1(C)CC(C)C (stereo not drawn)",
    "system": "SN12C renal",
    "TGI": "38.5 µM"
  },
  {
    "molecule": "COc1ccc(OC)c(N2CC(N)C2=O)c1 (stereo not drawn)",
    "system": "SN12C renal",
    "TGI": "> 100 µM"
  },
  {
    "molecule": "Cc1cccc(Cn2c3c(c4cc(O)ccc42)C(=O)c2ccccc2C3=O)c1",
    "system": "SN12C renal",
    "TGI": "> 100 µM"
  }
]

###

# System: A549 NSCLC
# protocolNotes: NCI tumour cell line growth inhibition, 48 h
Each entry below lists one item and its recorded TGI value.

[
  {
    "compound": "O=C(Oc1ccc(Cl)cc1)c1ccccc1Nc1ccnc(C(F)(F)F)c1",
    "TGI": "52.3 µM"
  },
  {
    "compound": "N[C@@H](CCC(=O)NCP(=O)(O)O)C(=O)O",
    "TGI": "> 100 µM"
  },
  {
    "compound": "S=c1sc2c(n1-c1ccccc1)NC=NC2S (stereo not given)",
    "TGI": "> 100 µM"
  },
  {
    "compound": "COc1cc(C2CC(C)(O)Oc3cc4c(cc32)OCO4)cc(OC)c1OC (stereo not given)",
    "TGI": "> 100 µM"
  },
  {
    "compound": "CCCCCCCC/C=C\\CCCCCCCCCCCC(=O)O",
    "TGI": "> 125 µM"
  },
  {
    "compound": "O=C(Nc1ccccc1-c1nn(C(=S)Nc2ccccc2)c(=S)n(C(=S)Nc2ccccc2)c1=O)C(F)(F)F",
    "TGI": "> 100 µM"
  },
  {
    "compound": "CN(C)c1cc(NN=C(c2ccc(O)cc2)c2ccc(O)cc2)c([N+](=O)[O-])cc1[N+](=O)[O-]",
    "TGI": "18.5 µM"
  },
  {
    "compound": "COc1ccc(CN2C(=O)/C(=C\\c3cc(OC)c(OC)c(OC)c3)c3ccccc32)cc1",
    "TGI": "> 100 µM"
  },
  {
    "compound": "Cc1ccccc1C(=N)c1ccccc1Cc1cccc2ccccc12",
    "TGI": "> 100 µM"
  },
  {
    "compound": "NC(N)=Nc1ccc(CC(N)NCC(=O)O)cc1 (stereo not given)",
    "TGI": "> 25 µM"
  },
  {
    "compound": "CCOC(=O)C1=C(C(=O)OCC)C2c3ccccc3C=CN2C(C(=O)OCC)=C(SC)S1 (stereo not given)",
    "TGI": "> 100 µM"
  },
  {
    "compound": "Cc1ccc(-n2c3nc(=O)[nH]c(=O)c-3cc3cc([N+](=O)[O-])ccc32)cc1",
    "TGI": "> 100 µM"
  },
  {
    "compound": "C/C(CCn1[nH]c(=O)ccc1=O)=N\\NC(=O)C(=O)NN",
    "TGI": "> 100 µM"
  },
  {
    "compound": "O=C(CCCSc1nc(-c2ccccc2)cc(-c2ccccc2)n1)NO",
    "TGI": "10.1 µM"
  },
  {
    "compound": "CC(=O)Oc1cccc2c1C(=O)CCCC2",
    "TGI": "> 100 µM"
  }
]

###

Recorded measurements of TGI, one per entry
# Tested on: A498 renal
# protocolNotes: NCI tumour cell line growth inhibition, 48 h
measuredEndpoint: TGI (µM)

[
  {
    "molecule": "C=C1C(=O)O[C@H]2[C@H]1CC/C(COC(=O)NCc1ccc(Cn3c(=O)sn(-c4ccc(OC)cc4)c3=O)cc1)=C\\CC[C@@]1(C)O[C@@H]21",
    "measuredEndpoint": "TGI",
    "prefixOperator": "=",
    "recordedNumber": 17.8
  },
  {
    "molecule": "CCN(CC)C(=S)N/N=C/c1cc([N+](=O)[O-])ccc1O",
    "measuredEndpoint": "TGI",
    "prefixOperator": "=",
    "recordedNumber": 7.47
  },
  {
    "molecule": "Cc1csc(-c2nnc(Nc3ccc(Oc4ncccc4-c4ccnc(N)n4)cc3)c3ccccc23)c1",
    "measuredEndpoint": "TGI",
    "prefixOperator": ">",
    "recordedNumber": 100
  },
  {
    "molecule": "Cc1cc2c(C)[nH]nc2c(C(=O)O)c1C",
    "measuredEndpoint": "TGI",
    "prefixOperator": ">",
    "recordedNumber": 100
  },
  {
    "molecule": "COc1ccc(C2[C@@H](c3ccccc3)C(=O)N2c2cc(OC)c(OC)c(OC)c2)cc1F (stereo partly specified)",
    "measuredEndpoint": "TGI",
    "prefixOperator": "=",
    "recordedNumber": 0.0861
  },
  {
    "molecule": "CCOC(=O)N1CCN(Cc2cc(=O)n3ccc(C)cc3n2)CC1",
    "measuredEndpoint": "TGI",
    "prefixOperator": ">",
    "recordedNumber": 100
  }
]
